Sourced from patent US20240400708A1

Molecular target: feline FcRn complex (FcRn-α subunit and β-microglobulin), biotin labeled (feline)
Test: SPR, pH 6
Would you kindly list pKd for each of these binders?
One number for each entry, as −log10 of the molar value.

Sample answers from the record:
- Binder: "feline IgG1a S252M/S434N (antibody, part only; not given: Variable domains, not shown: another chain or arm of the molecule) constant: ASTTAPSVFPLAPSCGTTSGATVALACLVLGYFPEPVTVSWNSGALTSGVHTFPAVLQASGLYSLSSMVTVPSSRWLSDTFTCNVAHPPSNTKVDKTVRKTDHPPGPKPCDCPKCPPPEMLGGPSIFIFPPKPKDTLMISRTPEVTCLVVDLGPDDSDVQITWFVDNTQVYTAKTSPREEQFNSTYRVVSVLPILHQDWLKGKEFKCKVNSKSLPSPIERTISKAKGQPHEPQVYVLPPAQEELSRNKVSVTCLIKSFHPPDIAVEWEITGQPEPENNYRTTPPQLDSDGTYFVYSKLSVDRSHWQRGNTYTCSVSHEALHNHHTQKSLTQSPGK"
  Numeric Value: 7.83
- Binder: "feline IgG1a S428M (antibody, part only; not given: Variable domains, not shown: another chain or arm of the molecule) constant: ASTTAPSVFPLAPSCGTTSGATVALACLVLGYFPEPVTVSWNSGALTSGVHTFPAVLQASGLYSLSSMVTVPSSRWLSDTFTCNVAHPPSNTKVDKTVRKTDHPPGPKPCDCPKCPPPEMLGGPSIFIFPPKPKDTLSISRTPEVTCLVVDLGPDDSDVQITWFVDNTQVYTAKTSPREEQFNSTYRVVSVLPILHQDWLKGKEFKCKVNSKSLPSPIERTISKAKGQPHEPQVYVLPPAQEELSRNKVSVTCLIKSFHPPDIAVEWEITGQPEPENNYRTTPPQLDSDGTYFVYSKLSVDRSHWQRGNTYTCSVMHEALHSHHTQKSLTQSPGK"
  Numeric Value: 7.66
- Binder: "feline IgG1a S254L (antibody, part only; not given: variable domains and light chain, not shown: another chain or arm of the molecule) constant: ASTTAPSVFPLAPSCGTTSGATVALACLVLGYFPEPVTVSWNSGALTSGVHTFPAVLQASGLYSLSSMVTVPSSRWLSDTFTCNVAHPPSNTKVDKTVRKTDHPPGPKPCDCPKCPPPEMLGGPSIFIFPPKPKDTLSILRTPEVTCLVVDLGPDDSDVQITWFVDNTQVYTAKTSPREEQFNSTYRVVSVLPILHQDWLKGKEFKCKVNSKSLPSPIERTISKAKGQPHEPQVYVLPPAQEELSRNKVSVTCLIKSFHPPDIAVEWEITGQPEPENNYRTTPPQLDSDGTYFVYSKLSVDRSHWQRGNTYTCSVSHEALHSHHTQKSLTQSPGK"
  Numeric Value: 7.37
- Binder: "feline IgG1a S428W (antibody, part only; not given: Variable domains, not shown: another chain or arm of the molecule; small tags and cut ends) constant: ASTTAPSVFPLAPSCGTTSGATVALACLVLGYFPEPVTVSWNSGALTSGVHTFPAVLQASGLYSLSSMVTVPSSRWLSDTFTCNVAHPPSNTKVDKTVRKTDHPPGPKPCDCPKCPPPEMLGGPSIFIFPPKPKDTLSISRTPEVTCLVVDLGPDDSDVQITWFVDNTQVYTAKTSPREEQFNSTYRVVSVLPILHQDWLKGKEFKCKVNSKSLPSPIERTISKAKGQPHEPQVYVLPPAQEELSRNKVSVTCLIKSFHPPDIAVEWEITGQPEPENNYRTTPPQLDSDGTYFVYSKLSVDRSHWQRGNTYTCSVWHEALHSHHTQKSLTQSPGK"
  Numeric Value: 7.44
- Binder: "feline IgG1a A378V (antibody, part only; not given: Variable domains, not shown: another chain or arm of the molecule; small tags and cut ends) constant: ASTTAPSVFPLAPSCGTTSGATVALACLVLGYFPEPVTVSWNSGALTSGVHTFPAVLQASGLYSLSSMVTVPSSRWLSDTFTCNVAHPPSNTKVDKTVRKTDHPPGPKPCDCPKCPPPEMLGGPSIFIFPPKPKDTLSISRTPEVTCLVVDLGPDDSDVQITWFVDNTQVYTAKTSPREEQFNSTYRVVSVLPILHQDWLKGKEFKCKVNSKSLPSPIERTISKAKGQPHEPQVYVLPPAQEELSRNKVSVTCLIKSFHPPDIVVEWEITGQPEPENNYRTTPPQLDSDGTYFVYSKLSVDRSHWQRGNTYTCSVSHEALHSHHTQKSLTQSPGK"
  Numeric Value: 7.37
- Binder: "feline IgG1a L309I (antibody, part only; not given: variable domains, not shown: another chain or arm of the molecule) constant: ASTTAPSVFPLAPSCGTTSGATVALACLVLGYFPEPVTVSWNSGALTSGVHTFPAVLQASGLYSLSSMVTVPSSRWLSDTFTCNVAHPPSNTKVDKTVRKTDHPPGPKPCDCPKCPPPEMLGGPSIFIFPPKPKDTLSISRTPEVTCLVVDLGPDDSDVQITWFVDNTQVYTAKTSPREEQFNSTYRVVSVLPIIHQDWLKGKEFKCKVNSKSLPSPIERTISKAKGQPHEPQVYVLPPAQEELSRNKVSVTCLIKSFHPPDIAVEWEITGQPEPENNYRTTPPQLDSDGTYFVYSKLSVDRSHWQRGNTYTCSVSHEALHSHHTQKSLTQSPGK"
  Numeric Value: 8.17
- Binder: "feline IgG1a S252H/L314K (antibody, part only; not given: Variable domains, not shown: another chain or arm of the molecule; small tags and cut ends) constant: ASTTAPSVFPLAPSCGTTSGATVALACLVLGYFPEPVTVSWNSGALTSGVHTFPAVLQASGLYSLSSMVTVPSSRWLSDTFTCNVAHPPSNTKVDKTVRKTDHPPGPKPCDCPKCPPPEMLGGPSIFIFPPKPKDTLHISRTPEVTCLVVDLGPDDSDVQITWFVDNTQVYTAKTSPREEQFNSTYRVVSVLPILHQDWKKGKEFKCKVNSKSLPSPIERTISKAKGQPHEPQVYVLPPAQEELSRNKVSVTCLIKSFHPPDIAVEWEITGQPEPENNYRTTPPQLDSDGTYFVYSKLSVDRSHWQRGNTYTCSVSHEALHSHHTQKSLTQSPGK"
  Numeric Value: 8.20

From here, focus on the item given below.
Inquiry: What value of pKd has been recorded for this entry: feline IgG1a S252Y/S428Y/S434Y (antibody, part only; not given: variable domains and light chain, not shown: another chain or arm of the molecule) constant: ASTTAPSVFPLAPSCGTTSGATVALACLVLGYFPEPVTVSWNSGALTSGVHTFPAVLQASGLYSLSSMVTVPSSRWLSDTFTCNVAHPPSNTKVDKTVRKTDHPPGPKPCDCPKCPPPEMLGGPSIFIFPPKPKDTLYISRTPEVTCLVVDLGPDDSDVQITWFVDNTQVYTAKTSPREEQFNSTYRVVSVLPILHQDWLKGKEFKCKVNSKSLPSPIERTISKAKGQPHEPQVYVLPPAQEELSRNKVSVTCLIKSFHPPDIAVEWEITGQPEPENNYRTTPPQLDSDGTYFVYSKLSVDRSHWQRGNTYTCSVYHEALHYHHTQKSLTQSPGK
Reply text: 7.11
